Reported IC50 by item:
target: Recombinant human HSD17B13 enzyme (Homo sapiens); assay: HSD17b13 NAD(P)H-Glo biochemical assay; settings: 50 uM estradiol, 1 mM NAD+, NAD(P)H-Glo luminescence; read-out: HSD17β13 IC50

Compound: Cn1nc(-c2cc(C(F)(F)F)c(F)c(O)c2F)c2cnc(N3CCOCC3(C)C)nc21
IC50: < 100 nM

Sample Cn1nc(-c2cc(C(F)(F)F)c(F)c(O)c2F)c2cnc(N3CCOC(C4CCOCC4)C3)nc21 (stereo not shown) — what was its IC50?
< 100 nM

----------
Reported pIC50 by item:
Molecular target: Recombinant human HSD17B13 enzyme (Homo sapiens)
Sequence (Q7Z5P4 20-300): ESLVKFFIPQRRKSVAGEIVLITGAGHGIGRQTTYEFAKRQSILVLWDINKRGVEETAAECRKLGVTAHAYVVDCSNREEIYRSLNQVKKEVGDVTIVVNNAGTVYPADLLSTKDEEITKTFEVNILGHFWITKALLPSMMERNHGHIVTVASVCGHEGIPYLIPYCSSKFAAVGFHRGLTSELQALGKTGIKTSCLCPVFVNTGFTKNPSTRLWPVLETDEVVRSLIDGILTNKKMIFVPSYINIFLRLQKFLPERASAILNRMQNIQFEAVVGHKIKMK
Experiment: HSD17b13 NAD(P)H-Glo biochemical assay
Details: 50 uM estradiol, 1 mM NAD+, NAD(P)H-Glo luminescence; read-out: HSD17β13 IC50
pIC50: −log10 of the molar value.

Some solved cases for reference:
Molecule: Cn1nc(-c2cc(C(F)(F)F)c(F)c(O)c2F)c2cnc(N3CCNC(=O)C3)cc21 [Compound 9.92]
Experimental System: Recombinant human HSD17B13 enzyme (Homo sapiens)
pIC50: 6.00 to 7.00
--
Molecule: CNC1CCN(c2ncc3c(-c4cc(C(F)(F)F)c(F)c(O)c4F)nn(C)c3n2)CC1 [Compound 18.29]
Experimental System: Recombinant human HSD17B13 enzyme (Homo sapiens)
pIC50: 6.00 to 7.00
--
Molecule: COCCN(c1cc2c(cn1)c(-c1cc(C(F)(F)F)c(F)c(O)c1F)nn2C)C1CCOCC1 [Compound 9.50]
Experimental System: Recombinant human HSD17B13 enzyme (Homo sapiens)
pIC50: > 7.00

Sample CN1CCN(c2ncc3c(-c4cc(C(F)(F)F)c(F)c(O)c4F)nn(C)c3n2)CC1 [Compound 18.72] — what was its pIC50?
6.00 to 7.00

----------
target: Recombinant human HSD17B13 enzyme (Homo sapiens, UniProt Q7Z5P4); assay: HSD17b13 NAD(P)H-Glo biochemical assay; conditions: 50 uM estradiol, 1 mM NAD+, NAD(P)H-Glo luminescence; read-out: HSD17β13 IC50
Reported IC50 by item:

Some solved cases for reference:
Smiles Code: Cn1nc(-c2cc(C(F)(F)F)c(F)c(O)c2F)c2cc(F)c(N3CCOCC34CC4)nc21
Observed Value: < 100 nM
--
Smiles Code: Cn1nc(-c2cc(C(F)(F)F)c(F)c(O)c2F)c2cnc(N3CCN(C(=O)C4CCOCC4)CC3)nc21
Observed Value: 100 to 1000 nM
--
Smiles Code: CS(=O)(=O)N1CCN(c2ccc3oc(-c4cc(O)c(F)c(F)c4)nc3c2)CC1
Observed Value: 100 to 1000 nM
--
Smiles Code: Cn1nc(-c2cc(C(F)(F)F)c(F)c(O)c2F)c2cnc(N3CC4(CCCNC4=O)C3)nc21
Observed Value: 100 to 1000 nM
--
Smiles Code: CN(c1cc2c(cn1)c(-c1cc(C(F)(F)F)c(F)c(O)c1F)nn2C)C1CCC1
Observed Value: < 100 nM

Sample `CS(=O)(=O)N1CCN(c2ccc3oc(-c4cc(C(F)(F)F)cc(O)n4)nc3c2)CC1` — what was its IC50?
1000 to 30000 nM

Sample `CN1CCN(c2cc3c(cn2)c(-c2cc(C(F)(F)F)c(F)c(O)c2F)nn3C)C2(CC2)C1=O` — what was its IC50?
< 100 nM
